Origin of values: the supplement of paper PMC9170038

Reported apparent KD of MS2 coat protein is given for each of the following sequences.
Tested on: MS2 coat protein
Experiment: apparent KD of MS2 coat protein; designed switch direction (-1 OFF switch, 1 ON switch): 1; higher = weaker reporter binding
Conditions: input ligand: FMN 200 uM
Please reply with the bare figure in nM and do not write the unit itself.

GAGCCAGUCCGAGGAUAUUCAUAAUUAAAUACAUGAGGAUCACCCAUGUAGGCAAGAGAGCCUUGGGAGAAGGCGGACUGGCUC [Xeonanisa>>2] (Eterna round: R96, puzzle: Same State NG 2)    12.8
UUUAGAGGCGCAGGAUAUGGUGAGGAUCACCCACUAGAAGGGUGCACAUGAGAAUCGGACAUGAGGAUCACCCAUGUUUGGCGC (Eterna round: R96, puzzle: Same State NG 1)    806

Continue with the sequence presented below.
Query string: State the recorded apparent KD of MS2 coat protein for this entry: AACGUGUAGGAAGGAUAUAUUGUUCAAGGGAUUGCAAUCUCUAACAUGAGGAUCACCCAUGUAGAGUAGAAGGUCCACCGCAGG [Eternabot solution 40] (Eterna round: R96, puzzle: Same State NG 2)
Result string: 14.1

---

Tested on: MS2 coat protein
Assay: apparent KD of MS2 coat protein; designed switch direction (-1 OFF switch, 1 ON switch): -1; higher = weaker reporter binding
Conditions: input ligand: FMN 200 uM
Listed next: entries and their corresponding apparent KD of MS2 coat protein.
Remember to quote the unit after the number.

Query string: Fill in the blank: the reported apparent KD of MS2 coat protein of CCAGCGUAUGUGAGGAUAUGCUGGUCCUUGGAUCAGCAGAAGGCACAUGAGGAUCACCCAUGUGGAAACGUUGA [Mod of JL 2 - Jieux - Brourd's mod of Exclusion 4] (Eterna round: R97, puzzle: Brourd's mod of Exclusion 4) is ____.
Result string: 44.9 nM

Query string: Next entry: AUCCAACAUGAGGAUCACCCAUGUGAGGAUAUGCCCAAAACUCUUCGAUCCGAAGAGCGCAGAAGGCACAUGAA [EX1 A.18] (Eterna round: R97, puzzle: Exclusion 1)
Result string: 33.4 nM

---

In this section we review reported apparent KD of MS2 coat protein values for a set of sequences.
System: MS2 coat protein
Test: apparent KD of MS2 coat protein; designed switch direction (-1 OFF switch, 1 ON switch): -1; higher = weaker reporter binding
Settings: input ligand: FMN 200 uM
Provide the reading as a plain figure in nM.

Sample records with apparent KD of MS2 coat protein:
UUUUUAUAUGAAGGAUAUACUUAACAUGAGGAUCACCCAUGUGGUGUUGUGAGUGAGUGAGUUUAGUAGAAGGUCAAUUCGUUU [JMF's solution 80] (Eterna round: R96, puzzle: Exclusion NG 2)    823
GAUCCUUCUGUUAGGAUAUGCUUUGGGCUUCCGCAGCAGAAGGAACAUGAGGAUCACCCAUGUCCAAUGCCAUC [salish99_bmex4_r4_505] (Eterna round: R97, puzzle: Brourd's mod of Exclusion 4)    46.1

Query string: Record request: apparent KD of MS2 coat protein value, item UCCAGUGAAGGAUAUGCACCAGGCAAUUGUAGGGUACUCAUACAUGAGGAUCACCCAUGUAGAAGGUCGCAGGC [Eternabot (L2) Solution 78] (Eterna round: R97, puzzle: Exclusion 2)
Result string: 32.4
